- Test system: HCC-2998 colon
- protocolSummary: NCI-60 one-dose screen, 48 h
- experimentalSetup: 10 µM unless noted
About 83,000 compounds went through this panel and 20% of them were active in at least one assay; those are over-represented in the sample as a whole. Active and inactive are the calls of the source. Rule for the calls: active = growth percent below 10; inactive = the rest.
Outcomes: active, inactive

smilesString: COc1ccccc1C(OC(C)=O)OC(C)=O
category: inactive
//
smilesString: COc1ccc(-c2nnc(SCC(=O)Nc3ccc(C(=O)/C=C/c4ccc(OC)c(OC)c4)cc3)o2)cc1
category: inactive
//
smilesString: Cc1ccn2cc(Cc3cc(=O)oc4c3ccc3ccccc34)c(=O)nc2c1
category: inactive
//
smilesString: O=[N+]([O-])c1cccc(C(c2ccccc2)c2ccccc2)c1
category: inactive
//
smilesString: COc1ccc(-c2nn(-c3ccc(NC(=O)c4ccc(Cl)c(C(F)(F)F)c4)cc3)cc2-c2ccncc2)cc1Cl
category: active

====

We begin with a simple list: items and their reported growth.
- Test system: UO-31 renal
- protocolSummary: NCI-60 one-dose screen, 48 h (100 = growth as untreated, 0 = no growth, -100 = all killed)
- experimentalSetup: 10 µM unless noted
Compounds without any hit were thinned out: in the full panel of roughly 83,000, 20% have a hit. Activity calls are given as the source filed them. The calls were made as follows: active = growth percent below 10; inactive = the rest.
endpointName: growth

compound: CCC1S/C(=N\N=C(/C)c2cc3ccccc3o2)N(c2ccccc2)C1=O (stereo not given)
measured: 75.9% (inactive)
--
compound: Nc1nccc2c1ccn2-c1ccc(NC(=O)Nc2cccc(C(F)(F)F)c2)cc1
measured: 81.4% (inactive)
--
compound: CN1C(=O)C2(SCC(C(=O)NCC(=O)OC(C)(C)C)N2C(=O)C2CCCCC2)c2ccccc21 (stereo not given)
measured: 84% (inactive)
--
compound: CC1(C)N=C(N)N=C(N)N1c1cccc(CCCCc2ccccc2)c1
measured: 27.2% (inactive)
--
compound: O=c1nc(N2CCOCC2)oc2c(-c3cccc4ccccc34)cccc12
measured: 53.4% (inactive)
--
compound: CCCCCCCC(=O)SCC/C=C/[C@@H]1CC(=O)NCc2nc(cs2)C2=N[C@@](C)(CS2)C(=O)N[C@@H](C(C)C)C(=O)N1
measured: 18.9% (inactive)
--
compound: O=c1c2ccccc2sc2c(NCCN3CCOCC3)nc3ccccc3c12
measured: 47.6% (inactive)
--
compound: CC/C(=C(\CC)c1ccc(OCCN(CC)CC)cc1)c1ccc(OCCN(CC)CC)cc1
measured: 24.4% (inactive)
--
compound: Cc1nssc1=S
measured: 87.9% (inactive)
--
compound: CC(Cl)(CCl)CS(=O)(=O)c1ccc(Cl)cc1 (stereo not given)
measured: 92.8% (inactive)

====

- Test system: HOP-92 NSCLC
- protocolSummary: NCI-60 one-dose screen, 48 h
- experimentalSetup: 10 µM unless noted
About 83,000 compounds went through this panel and 20% of them were active in at least one assay; those are over-represented in the sample as a whole. Calls of active or inactive are those of the source. Rule for the calls: active = growth percent below 10; inactive = the rest.
Outcomes: t = active, f = inactive

molecule: CCc1ccc(C2=C/C(=C/c3ccc(Cl)cc3)C(=O)N2CCc2ccc(S(N)(=O)=O)cc2)cc1
category: f

molecule: CC(=O)c1cc2c(c(O)c1C)C(=O)C(=O)c1c(O)cccc1-2
category: t

molecule: Fc1ccc(/C=N/n2c(-c3cc(Cl)cc(Cl)c3Cl)nn(CNc3ccc(Cl)nn3)c2=S)cc1
category: f

molecule: O=C(O)c1cc2ccccc2cc1Nc1ccccc1
category: f

molecule: Cc1ccc(N(CC2=NCCN2)c2cccc(O)c2)cc1
category: f

molecule: CC1(C)CC(=O)C2=C(C1)OC1=C(C(=O)CC(C)(C)C1)C2c1ccc(OCc2cn(-c3ccc(F)cc3F)nn2)cc1
category: f

molecule: COc1ccc(OCC(O)CN2CCN(c3ccc(Cl)cc3)CC2)cc1 (stereo not given)
category: f

molecule: COc1ccc2c(c1)/C(=C/c1c(-c3cc(OC)c(OC)c(OC)c3Br)nc3sccn13)C(=O)N2
category: f

molecule: C=CC(C)(O)CCC1C(=C)CCC2C(C)(C)CCCC12C (stereo not given)
category: f

molecule: O=C(CSc1nnc(-c2ccccc2)o1)Nc1ccc(C(=O)/C=C/c2ccccc2)cc1
category: f

molecule: Cn1cnc([N+](=O)[O-])c1N1c2ccncc2Sc2ccncc21
category: f

molecule: Cc1ccc(=O)n(-c2ccc(Br)cc2F)c1
category: f

molecule: COc1cc(Nc2ncccc2C(=O)Nc2nc3ccc(F)cc3s2)cc(OC)c1OC
category: f

molecule: O=C(Nc1cccc([N+](=O)[O-])c1)c1ccc2ccccc2c1O
category: t

molecule: Nn1c(CN2CCN(c3cc4c(cc3F)c(=O)c(C(=O)O)cn4C3CC3)CC2)n[nH]c1=S
category: f

molecule: COc1ccc(Cl)cc1NC(=O)c1cc2c(n1C)-c1nc(NC(=O)C(C)C)sc1CC2
category: f

molecule: C=C1C(=O)O[C@H]2[C@H]1CC/C(COC(=O)c1ccc(Br)cc1)=C\CC[C@@]1(C)O[C@@H]21
category: t

molecule: COc1cc([C@@H]2c3cc4c(cc3C(OC3O[C@@H]5COC(C)O[C@H]5[C@H](O)[C@H]3O)C3COC(=O)[C@@H]32)OCO4)cc(OC)c1O (stereo not given in full)
category: f

molecule: Cl[C@@H]1CCO[C@H](c2cc3ccccc3c3ccccc23)C1
category: f

molecule: Cc1[nH]n(C(=O)c2ccncc2)c(=O)c1N=Nc1ccc(S(=O)(=O)Nc2ccncn2)cc1
category: f

molecule: CCOC(=O)c1[nH]c(-c2ccc(Cl)cc2)cc1-c1cccnc1
category: f

molecule: COc1ccc(-c2nnc(SCC(=O)Nc3ccc(C(=O)/C=C/c4ccc(OC)c(OC)c4)cc3)o2)cc1
category: f

molecule: O=C(NCCNc1nccc(-c2c(-c3cccc(O)c3)nc3sccn23)n1)c1ccc(N2CCOCC2)c(C(F)(F)F)c1
category: f

molecule: COc1ccc(-c2coc3c(CO)c(O)ccc3c2=O)cc1
category: f

molecule: O=C1CN(CCN2CC(=O)NC(=O)C2)CC(=O)N1
category: f

molecule: NCC(=O)NS(=O)(=O)OC[C@H]1O[C@@H](n2cnc3c(N)ncnc32)[C@H](O)[C@@H]1O
category: f

molecule: COC1=C(OC)C(=O)C=CC1=O
category: f

molecule: CC(C)(C)OC(=O)N1CC(Cn2cc(C(F)(F)F)c3c(Cl)ncnc32)C1
category: t

molecule: Cc1ccc2oc(=O)cc(C3C(C#N)=C(N)Oc4c3ccc3ccccc43)c2c1 (stereo not given)
category: f

molecule: CCN(CC)CC(=O)Nc1c(C)cccc1C
category: f

molecule: CCOc1ccc(NC(=O)Nc2cc(C(C)C)ccc2C)cc1
category: f

molecule: COc1ccc2c(c1)OC(N)=C(C#N)C2c1ccc(F)c(F)c1 (stereo not given)
category: f

molecule: C=CC(=O)NC(=O)Nc1ccccc1Cl
category: f

molecule: COc1ccc(Cn2cc(COc3ccc4c5ccnc(C)c5n(CCCc5ccccc5)c4c3)nn2)cc1
category: f

molecule: CCOc1ccc(Cc2nccc3cc(OCC)c(OCC)cc23)cc1OCC
category: f

molecule: COc1ccc(NC(=O)Nc2ccc(-c3ccc(OC)c(OC)c3)nc2C)cc1
category: f

molecule: COc1cc2c(/C=C3/C(=O)Nc4ccc(O)cc43)c(Cl)n(Cc3cc(OC)c(OC)c(OC)c3)c2cc1C
category: t

molecule: C=C1C(=O)O[C@H]2[C@H]1CC/C(COC(=O)c1ccc(Cl)nc1)=C\CC[C@@]1(C)O[C@@H]21
category: t

molecule: CCCCN(CCCC)c1ccc(C(=N)c2ccc(N(C)C)cc2)cc1
category: t

molecule: CCn1cc(C(=O)O)c(=O)c2cc(F)c(N3CCN(CC(=O)Nc4ccc(C(C)=O)cc4)CC3)cc21
category: f

Value source: PubChem BioAssay (NCI)
